# SUBJECT OF TEST: T1, human TF ECD-His (hTF-his) (human, UniProt P13726 33-251)
# T1 construct: also called bio-hTF-his; human TF-His protein
# PROCEDURE TEXT: SPR Biacore T200, antibody on Protein A chip, TF-His as analyte, 1:1 model
MEASURED ATTRIBUTE: koff (s⁻¹)
Entry rule: numbers only, all in s⁻¹.

State the recorded koff for this entry: hu67-11 (antibody, human IgG1, kappa, V domains shown) VH: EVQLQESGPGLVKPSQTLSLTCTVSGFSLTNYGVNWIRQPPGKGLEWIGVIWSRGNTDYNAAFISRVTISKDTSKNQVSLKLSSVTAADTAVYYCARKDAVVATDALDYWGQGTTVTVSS VL: DIQMTQSPSSLSASVGDRVTITCKASQDVSTAVAWYQQKPGKAPKLLIYSTSYRYTGVPSRFSGSGSGTDFTFTISSLQPEDIATYYCQQHYSTPYTFGGGTKVEIKR
0.000675

And the next one, hu10H10-29 (antibody, V domains shown, H11+L1; Full-length IgG) VH: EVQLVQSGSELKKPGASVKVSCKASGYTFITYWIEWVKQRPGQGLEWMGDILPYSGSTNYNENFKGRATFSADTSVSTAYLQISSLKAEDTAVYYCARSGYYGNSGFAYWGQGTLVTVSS VL: DIQMTQSPSSLSASVGDRVTITCKSSQSLLSSGNQKNYLTWYQQKPGKAPKLLIYWASTRESGVPSRFSGSGSGTDFTLTISSLQPEDFATYYCQNDYTYPLTFGQGTKLEIK ?
7.45e-05

Proceed to the following item.
State the recorded koff for this entry: hu67-4 (antibody, human IgG1, kappa, V domains shown) VH: EVQLQESGPGLVKPSQTLSLTCTVSGFSLTNYGVNWIRQPPRKGLEWIGVIWSRGNTDYNAAFISRVTISKDNSKSQVSLKLSSVTAADTAVYYCARKDAVVATDALDYWGQGTTVTVSS VL: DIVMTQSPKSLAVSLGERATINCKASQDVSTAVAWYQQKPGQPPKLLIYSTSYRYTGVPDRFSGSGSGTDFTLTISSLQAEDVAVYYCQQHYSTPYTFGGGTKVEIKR
0.000766
